- Test target: T1, Human Siglec-9 mutant M10 (human, UniProt Q9Y336 18-463)
- T1 construct: Expressed on HEK293T cells; also called Mutant 10
- T1 sequence (Q9Y336 other isoform, or with tags, fused parts or gaps mutant): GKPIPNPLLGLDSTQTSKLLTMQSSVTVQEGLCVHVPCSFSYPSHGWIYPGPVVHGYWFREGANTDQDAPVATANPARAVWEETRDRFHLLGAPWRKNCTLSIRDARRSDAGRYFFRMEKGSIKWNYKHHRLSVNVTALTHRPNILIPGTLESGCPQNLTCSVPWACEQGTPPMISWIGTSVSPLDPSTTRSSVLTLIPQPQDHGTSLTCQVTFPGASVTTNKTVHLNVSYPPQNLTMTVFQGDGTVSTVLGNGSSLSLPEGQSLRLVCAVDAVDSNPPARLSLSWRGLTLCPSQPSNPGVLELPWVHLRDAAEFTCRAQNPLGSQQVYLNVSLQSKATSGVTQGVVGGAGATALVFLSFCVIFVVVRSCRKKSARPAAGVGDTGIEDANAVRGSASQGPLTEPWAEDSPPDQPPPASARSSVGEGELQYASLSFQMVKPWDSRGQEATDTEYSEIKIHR
- Assay procedure: flow cytometry, HEK293T transfectants
Outcome measure: binding result

# Binder, Outcome measure, Readout value
records = [
    ("mAbA (antibody, human IgG1, V domains shown) VH: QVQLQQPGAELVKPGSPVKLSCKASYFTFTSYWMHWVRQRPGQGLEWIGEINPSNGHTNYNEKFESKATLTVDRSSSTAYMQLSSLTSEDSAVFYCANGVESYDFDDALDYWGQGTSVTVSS VL: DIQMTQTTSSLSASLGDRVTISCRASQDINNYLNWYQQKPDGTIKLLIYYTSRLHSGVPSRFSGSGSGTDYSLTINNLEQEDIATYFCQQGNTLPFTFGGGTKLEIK", "binding result", "binds"),
]
